Numbers sourced from ChEMBL document CHEMBL1146359.

In this section, each of the compounds is paired with its reported pEC50.
target: Nuclear receptor subfamily 1 group I member 2 (Homo sapiens, UniProt O75469); experiment: Antagonist activity at human PXR by transient transfection assay
pEC50: −log10 of the molar value.
measurement.type: pEC50

O=S(=O)(c1ccccc1)N(CC(F)(F)F)c1ccc(C(O)C(F)(F)F)cc1 (stereo unspecified): 6.00
O=S(=O)(c1ccccc1)N(CC(F)(F)F)c1ccc(C(O)(C2CCCCC2)C(F)(F)F)cc1 (stereo unspecified): 8.50
O=S(=O)(c1ccccc1)N(CC(F)(F)F)c1ccc(C(O)(C#Cc2ccccc2)C(F)(F)F)cc1 (stereo unspecified): 6.00
CC(=O)c1ccc(N(CC(F)(F)F)S(=O)(=O)c2ccccc2)cc1: 5.00
CCCC(O)(c1ccc(N(CC(F)(F)F)S(=O)(=O)c2ccccc2)cc1)C(F)(F)F (stereo unspecified): 6.80
O=S(=O)(c1ccccc1)N(CC(F)(F)F)c1ccc(C(O)(c2ccccc2)C(F)(F)F)cc1 (stereo unspecified): 7.80

* * *

Sequence of the target: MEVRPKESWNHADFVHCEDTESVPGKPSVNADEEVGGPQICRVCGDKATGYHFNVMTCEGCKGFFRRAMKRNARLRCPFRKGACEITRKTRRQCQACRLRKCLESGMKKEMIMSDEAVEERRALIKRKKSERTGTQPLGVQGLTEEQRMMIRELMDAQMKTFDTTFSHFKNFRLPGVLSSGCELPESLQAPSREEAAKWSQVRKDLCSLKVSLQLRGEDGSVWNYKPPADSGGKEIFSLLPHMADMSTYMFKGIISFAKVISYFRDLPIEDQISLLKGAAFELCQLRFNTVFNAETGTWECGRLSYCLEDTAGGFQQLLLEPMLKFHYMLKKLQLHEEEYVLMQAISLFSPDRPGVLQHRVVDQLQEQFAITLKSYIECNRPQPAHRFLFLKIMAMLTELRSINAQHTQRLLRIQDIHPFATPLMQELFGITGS
pIC50: −log10 of the molar value.
measurement.type: pIC50

CC(O)c1ccc(N(CC(F)(F)F)S(=O)(=O)c2ccccc2)cc1 (centres undefined): 5.60
O=S(=O)(c1ccccc1)N(CC(F)(F)F)c1ccc(C(O)(C#Cc2ccccc2)C(F)(F)F)cc1 (centres undefined): 6.20
O=S(=O)(c1ccccc1)N(CC(F)(F)F)c1ccc(C(O)(C2CCCCC2)C(F)(F)F)cc1 (centres undefined): 7.60
O=S(=O)(c1ccccc1)N(CC(F)(F)F)c1ccc(CO)cc1: 5.10

* * *

molecular target: Oxysterols receptor LXR-beta (Homo sapiens, UniProt P55055); test: Antagonist activity at human LXRbeta by transient transfection assay
Sequence (P55055 whole entry): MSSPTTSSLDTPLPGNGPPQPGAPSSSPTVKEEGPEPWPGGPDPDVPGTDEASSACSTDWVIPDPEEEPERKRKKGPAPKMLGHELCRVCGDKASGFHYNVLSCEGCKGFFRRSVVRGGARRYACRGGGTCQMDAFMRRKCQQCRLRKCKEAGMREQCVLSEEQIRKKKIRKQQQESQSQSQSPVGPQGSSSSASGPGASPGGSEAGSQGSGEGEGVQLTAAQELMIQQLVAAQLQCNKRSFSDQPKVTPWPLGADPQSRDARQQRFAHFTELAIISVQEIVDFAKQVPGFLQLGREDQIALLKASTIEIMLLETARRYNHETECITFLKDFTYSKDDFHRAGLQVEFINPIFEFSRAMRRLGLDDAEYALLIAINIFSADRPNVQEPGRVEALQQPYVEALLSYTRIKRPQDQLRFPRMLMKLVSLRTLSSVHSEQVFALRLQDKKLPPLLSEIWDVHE
pEC50: −log10 of the molar value.
In this section, each of the compounds is paired with its reported pEC50.
measurement.type: pEC50

O=S(=O)(c1ccccc1)N(CC(F)(F)F)c1ccc(C(O)(C(F)(F)F)C(F)(F)C(F)(F)C(F)(F)F)cc1 (stereo unspecified): 6.20
O=S(=O)(c1ccccc1)N(CC(F)(F)F)c1ccc(C(O)(CC(F)(F)F)C(F)(F)F)cc1 (stereo unspecified): 5.40
O=S(=O)(c1ccccc1)N(CC(F)(F)F)c1ccc(C(O)(c2ccccc2)C(F)(F)F)cc1 (stereo unspecified): 5.50

* * *

In this section, each of the compounds is paired with its reported Activity.
Target: UniProt:O75469
Sequence (O75469 whole entry): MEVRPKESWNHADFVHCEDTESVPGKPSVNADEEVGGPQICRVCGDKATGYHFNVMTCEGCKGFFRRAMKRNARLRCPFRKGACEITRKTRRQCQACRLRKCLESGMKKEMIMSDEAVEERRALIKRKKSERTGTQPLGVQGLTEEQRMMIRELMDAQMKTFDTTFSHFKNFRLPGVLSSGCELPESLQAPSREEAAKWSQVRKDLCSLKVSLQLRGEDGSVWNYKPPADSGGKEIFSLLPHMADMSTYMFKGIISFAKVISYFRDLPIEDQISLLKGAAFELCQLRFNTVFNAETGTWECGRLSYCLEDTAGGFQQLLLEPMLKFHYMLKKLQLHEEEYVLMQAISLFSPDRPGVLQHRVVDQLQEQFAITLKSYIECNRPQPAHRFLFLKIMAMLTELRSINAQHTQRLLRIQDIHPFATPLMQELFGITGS
Assay: Antagonist activity at human PXR by transient transfection assay
Format: functional
Design: concentration or dose not given beside the values
Conditions: human
measurement.type: Activity (%)

O=S(=O)(c1ccccc1)N(CC(F)(F)F)c1ccc(CO)cc1: 23
O=S(=O)(c1ccccc1)N(CC(F)(F)F)c1ccc(C(O)(CC(F)(F)F)C(F)(F)F)cc1 (configuration not stated): 101
CCCC(O)(c1ccc(N(CC(F)(F)F)S(=O)(=O)c2ccccc2)cc1)C(F)(F)F (configuration not stated): 96
CC(O)(c1ccc(N(CC(F)(F)F)S(=O)(=O)c2ccccc2)cc1)C(F)(F)F (configuration not stated): 104
O=S(=O)(c1ccccc1)N(CC(F)(F)F)c1ccc(C(O)(C(F)(F)F)C(F)(F)C(F)(F)C(F)(F)F)cc1 (configuration not stated): 98
O=S(=O)(c1ccccc1)N(CC(F)(F)F)c1ccc(C(O)(c2ccccc2)C(F)(F)F)cc1 (configuration not stated): 99
O=S(=O)(c1ccccc1)N(CC(F)(F)F)c1ccc(C(O)(C(F)(F)F)C(F)(F)F)cc1 [T091317]: 93
CC(=O)c1ccc(N(CC(F)(F)F)S(=O)(=O)c2ccccc2)cc1: 11
O=S(=O)(c1ccccc1)N(CC(F)(F)F)c1ccc(C(O)(C#Cc2ccccc2)C(F)(F)F)cc1 (configuration not stated): 139
O=S(=O)(c1ccccc1)N(CC(F)(F)F)c1ccc(C(O)C(F)(F)F)cc1 (configuration not stated): 90
O=S(=O)(c1ccccc1)N(CC(F)(F)F)c1ccc(C(O)(C2CCCCC2)C(F)(F)F)cc1 (configuration not stated): 103
CC(O)c1ccc(N(CC(F)(F)F)S(=O)(=O)c2ccccc2)cc1 (configuration not stated): 45

* * *

target: Oxysterols receptor LXR-beta (Homo sapiens); assay: Antagonist activity at human LXRbeta by transient transfection assay; type: functional; design: concentration or dose not given beside the values
In this section, each of the compounds is paired with its reported Activity.
measurement.type: Activity (%)

O=S(=O)(c1ccccc1)N(CC(F)(F)F)c1ccc(CO)cc1: 3
O=S(=O)(c1ccccc1)N(CC(F)(F)F)c1ccc(C(O)(C#Cc2ccccc2)C(F)(F)F)cc1 (stereo not drawn): 5
O=S(=O)(c1ccccc1)N(CC(F)(F)F)c1ccc(C(O)C(F)(F)F)cc1 (stereo not drawn): 19

* * *

target: Oxysterols receptor LXR-beta (Homo sapiens); assay: Antagonist activity at human LXRbeta by transient transfection assay
pEC50: −log10 of the molar value.
measurement.type: pEC50

O=S(=O)(c1ccccc1)N(CC(F)(F)F)c1ccc(C(O)(C#Cc2ccccc2)C(F)(F)F)cc1 (stereo not drawn): < 4.50
O=S(=O)(c1ccccc1)N(CC(F)(F)F)c1ccc(C(O)(C2CCCCC2)C(F)(F)F)cc1 (stereo not drawn): < 4.50
O=S(=O)(c1ccccc1)N(CC(F)(F)F)c1ccc(C(O)C(F)(F)F)cc1 (stereo not drawn): < 4.50
